system: NCI-H522 lung; assay: NCI-60 one-dose screen, 48 h; conditions: 10 µM unless noted
Compounds without any hit were thinned out: in the full panel of roughly 83,000, 20% have a hit. Active and inactive are the calls of the source. Rule for the calls: active = growth percent below 10; inactive = the rest.
Form entry, call: pick from true (1) for active, false (0) for inactive

# example entries with known answers
>>> class_name("Cc1ccc(S(=O)(=O)c2nc(-c3ccccc3)oc2SCC(N)=O)cc1")
"false (0)"
>>> class_name("COC(=O)/C=C1/SC(=NCc2ccccc2)N(CCc2c[nH]c3ccccc23)C1=O")
"false (0)"
>>> class_name("COc1cc2c(c(OC)c1OC)C(=O)CC(c1cccc(C(=O)Nc3ccccc3Br)c1)O2 (stereo not given)")
"false (0)"
>>> class_name("O=S(=O)(Nc1ccc2ccccc2c1)c1ccc(-c2cnc(C3CC3)o2)cc1")
"true (1)"
>>> class_name("C=C(C)[C@@H]1CC[C@]2(C(=O)Nc3ccccn3)CC[C@]3(C)[C@H](CC[C@@H]4[C@@]5(C)CCCNC(C)(C)[C@@H]5CC[C@]43C)[C@@H]12")
"false (0)"

Input: Hello, I am checking results. What call was entered for Cc1cc2oc(/C=C/c3ccccc3)cc(=O)c2c(C)c1Cl ?
Output: false (0)

Input: Hello, I am checking results. What call was entered for Nc1c(Cl)cc(/C=C2\C=Cc3ccccc32)cc1Cl ?
Output: false (0)

Input: Hello, I am checking results. What call was entered for CN(C)c1ccc([C@@H](C(=O)Nc2cccc([N+](=O)[O-])c2)N(C(=O)c2cc3ccccc3[nH]2)c2cccc([N+](=O)[O-])c2)cc1 ?
Output: false (0)

Input: Hello, I am checking results. What call was entered for CCCCCc1ccc(S(=O)(=O)Nc2ccc3nc(N)oc3c2)cc1 ?
Output: false (0)

Input: Hello, I am checking results. What call was entered for CNC(=O)Nc1ccc(-c2ccc3ncnc(Nc4cccc(Cl)c4)c3c2)cc1 ?
Output: true (1)

Input: Hello, I am checking results. What call was entered for COc1cc2c(cc1OCCCN1CCN(C(=S)SCCC(C#N)(c3ccccc3)c3ccccc3)CC1)N=C[C@@H]1CCCN1C2=O ?
Output: true (1)

Input: Hello, I am checking results. What call was entered for Cc1ccc(S(=O)(=O)OCC#CCOS(=O)(=O)c2ccc(C)cc2)cc1 ?
Output: true (1)

Input: Hello, I am checking results. What call was entered for CS(=O)(=O)c1ccc(-c2nc3ccccc3n2CC(=O)N/N=C/c2ccccc2)cc1 ?
Output: false (0)

Input: Hello, I am checking results. What call was entered for C=C1C(=O)O[C@H]2[C@H]1CC/C(COC(=O)/C=C\C(=O)NCc1ccc(Cn3c(=O)sn(CCCCl)c3=O)cc1)=C\CC[C@@]1(C)O[C@@H]21 ?
Output: true (1)

Input: Hello, I am checking results. What call was entered for Cc1cccc(NC(=O)N/C(N)=N/c2nc3ccccc3s2)c1 ?
Output: false (0)

Input: Hello, I am checking results. What call was entered for COc1ccc(NC(=O)c2ccc(Nc3ncnc4c3cnn4-c3cccc(F)c3)cc2)cc1 ?
Output: false (0)

Input: Hello, I am checking results. What call was entered for COc1cc(/C=N/NC(=O)c2ccc(-n3cc(-c4ccccc4)nn3)cc2)cc(OC)c1OC ?
Output: false (0)

Input: Hello, I am checking results. What call was entered for COc1cc(C[C@H]2COc3cc(O)cc(O)c3C2=O)ccc1O ?
Output: false (0)

Input: Hello, I am checking results. What call was entered for CS(=O)/C(C#N)=C\C=C\c1cccc(Cl)c1 (stereo not given) ?
Output: true (1)

Input: Hello, I am checking results. What call was entered for Cc1ccc(NC(=O)c2cc3ccccc3cc2O)c(C)c1 ?
Output: true (1)

Input: Hello, I am checking results. What call was entered for O=C(c1cccc(N2CCOCC2)n1)c1c[nH]c2ccccc12 ?
Output: false (0)

Input: Hello, I am checking results. What call was entered for O=[N+]([O-])c1ccccc1Nc1ccc2ccccc2c1 ?
Output: false (0)

Input: Hello, I am checking results. What call was entered for COc1ccc(Oc2ccc(/C=C/C(=O)c3cc4ccccc4oc3=O)cc2)cc1 ?
Output: false (0)

Input: Hello, I am checking results. What call was entered for CN(C)CCC(=O)C1CC1 ?
Output: false (0)
